These measurements were taken from patent US6117890A.

assay target: muscarinic receptors (3H-oxotremorine-M binding)
method description: 3H-oxotremorine-M binding study
condition context: radioligand 3H-oxotremorine-M; read-out: inhibition constant (Ki) for binding of 3H-oxotremorine-M
readout kind: Ki (nM)
Express it in nM; write the number only.

Supply Ki value. Item: CCCCCCOc1nsnc1C1=CCCN(C)C1
2
